Exercise: state measured melting point for each of the compounds provided.

Below: 3 compounds and their reported melting point.
# compound, melting point
measured = [
    ("CCn1c(Oc2cccc(N3CCN(C(C)C)CC3)c2)nnc1[C@@H](C)NS(=O)(=O)c1ccc2cccc(Cl)c2c1", "131.5 to 132.5 °C"),
    ("CCn1c(Oc2cccc(NC(N)=O)c2)nnc1[C@@H](C)NS(=O)(=O)c1ccc(Cl)c(Cl)c1", "137 to 138 °C"),
    ("CCn1c(Oc2ccc(F)cc2)nnc1[C@@H](C)NS(=O)(=O)c1ccc(Cl)c(Cl)c1", "190 to 192 °C"),
]

Required: melting point, one value per compound below.
1. CCn1c(Oc2cccc(NS(C)(=O)=O)c2)nnc1[C@@H](C)NS(=O)(=O)c1ccc2c(Cl)cccc2c1
2. CCn1c(Oc2ccc3c(c2)N=S=N3)nnc1[C@@H](C)NS(=O)(=O)c1ccc(Cl)c(Cl)c1
3. CCn1c(Oc2cccc(NS(=O)(=O)N(C)C)c2)nnc1[C@@H](C)NS(=O)(=O)c1ccc(Cl)c(Cl)c1
4. CCn1c(Oc2cccc(N3CCN(C)CC3)c2)nnc1[C@@H](C)NS(=O)(=O)c1ccc2c(Br)cccc2c1
5. CCn1c(Oc2cc(OC)cc(OC)c2)nnc1[C@@H](C)NS(=O)(=O)c1ccc(Cl)c(Cl)c1
6. Cc1ccc(Oc2nnc([C@@H](C)NS(=O)(=O)c3ccc(Cl)c(Cl)c3)n2C)cc1
7. CCn1c(Oc2ccc(C)cc2)nnc1[C@@H](Cc1ccccc1)NS(=O)(=O)c1ccc(Cl)c(Cl)c1

1: 154.5 to 155.5 °C; 2: 160 to 165 °C; 3: 142 to 143 °C; 4: 207 to 208 °C; 5: 118 to 120 °C; 6: 181 to 183 °C; 7: 182.5 to 184.5 °C

Required: melting point, one value per compound below.
1. CCn1c(Oc2cccc(N3CCN(C)CC3)c2)nnc1[C@@H](C)NS(=O)(=O)c1ccc2c(I)cccc2c1 [Compound 691]
2. CCn1c(Oc2cccc(N3CCN(C)CC3)c2)nnc1[C@@H](C)NS(=O)(=O)c1ccc2ccccc2c1
3. CCn1c(Oc2cccc(-n3cccc3)c2)nnc1[C@@H](C)NS(=O)(=O)c1ccc(Cl)c(Cl)c1
4. CCn1c(Oc2ccc(F)cc2)nnc1[C@@H](C)NS(=O)(=O)c1ccc(Br)c(Br)c1
5. CCn1c(Oc2cc(Cl)cc(Cl)c2)nnc1[C@@H](C)NS(=O)(=O)c1ccc(Cl)c(Cl)c1

1: 180 to 182 °C; 2: 195.5 to 198.5 °C; 3: 176 to 177 °C; 4: 187 to 187.5 °C; 5: 212 to 216 °C

###

Exercise: state measured inhibition at 10 µM for each of the molecules provided.
biological target: human Edg-1 (S1P1) (Homo sapiens, UniProt P21453); construct: expressed in transfected cells; host or cells: HEK-293; test: S1P1 binding assay: inhibition of [33P]-S1P binding to membrane fraction of HEK-293 cells transferred with the human Edg-1 (S1P1) gene; conditions: test compound 10 μM; inhibition of [33P]-S1P binding, membrane fraction
Sequence (P21453 whole entry): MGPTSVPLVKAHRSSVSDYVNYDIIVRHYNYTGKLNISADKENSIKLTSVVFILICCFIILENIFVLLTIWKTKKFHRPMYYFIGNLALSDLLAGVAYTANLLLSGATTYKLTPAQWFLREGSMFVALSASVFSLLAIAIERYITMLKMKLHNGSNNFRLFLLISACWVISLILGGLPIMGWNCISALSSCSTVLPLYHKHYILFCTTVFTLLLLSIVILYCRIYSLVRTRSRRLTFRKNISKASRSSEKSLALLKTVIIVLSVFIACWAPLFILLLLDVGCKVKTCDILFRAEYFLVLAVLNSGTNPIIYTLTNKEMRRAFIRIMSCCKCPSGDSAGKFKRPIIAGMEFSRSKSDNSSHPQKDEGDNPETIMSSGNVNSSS
One number for each entry, in %.

Below: 3 molecules and their reported inhibition at 10 µM.
# smiles input, study target, recorded value
measured = [
    ("CCn1c(Oc2cccc(N3CCN(C)CC3)c2)nnc1[C@@H](C)NS(=O)(=O)c1c(C)c(C)c(C)c(C)c1C", "human Edg-1 (S1P1) (Homo sapiens, UniProt P21453)", 92.4),
    ("CCn1c(Oc2cccc(N3CCN(C)CC3)c2)nnc1[C@@H](C)NS(=O)(=O)c1cc(C(F)(F)F)cc(C(F)(F)F)c1", "human Edg-1 (S1P1) (Homo sapiens, UniProt P21453)", 107),
    ("CCn1c(Oc2cccc(N3CCN(C)CC3)c2)nnc1[C@@H](C)NS(=O)(=O)c1ccc(Cl)cc1Cl", "human Edg-1 (S1P1) (Homo sapiens, UniProt P21453)", 102),
]

Field: next molecule
// inhibition at 10 µM lookup, key: CCn1c(Oc2cccc(N3CCN(C)CC3)c2)nnc1[C@@H](C)NS(=O)(=O)c1ccc(F)cc1Cl 77.4

Where do these numbers come from? They come from patent US8022091B2.
